B1: KRT33B (parent)
chain: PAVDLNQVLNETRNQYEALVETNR

variants of: B1; test: protein stability index of a GFP-peptide fusion (GPS, HEK-293T) (PSI 1-6); higher = more stable; settings: c terminus: a fixed tail appended;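 further: lentivirally expressed fusions sorted by FACS into six bins by GFP to DsRed ratio, PSI derived from sequencing read proportions per bin multiplied by bin number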
Exercise: for every item that follows, state its recorded protein stability index.

**Q:** Given the entry "V8E" , report its measured protein stability index.
**A:** 4.7

**Q:** Given the entry "L19V" , report its measured protein stability index.
**A:** 4.85

**Q:** Given the entry "T12S" , report its measured protein stability index.
**A:** 3.8

**Q:** Given the entry "E21Q" , report its measured protein stability index.
**A:** 3.95

**Q:** Given the entry "R13P" , report its measured protein stability index.
**A:** 5.18

**Q:** Given the entry "D4Y" , report its measured protein stability index.
**A:** 3.44

**Q:** Given the entry "E17V" , report its measured protein stability index.
**A:** 3.71

**Q:** Given the entry "N14M" , report its measured protein stability index.
**A:** 2.05

**Q:** Given the entry "T22R" , report its measured protein stability index.
**A:** 4.02

**Q:** Given the entry "E11D" , report its measured protein stability index.
**A:** 3.77

**Q:** Given the entry "Q7H" , report its measured protein stability index.
**A:** 4.38

**Q:** Given the entry "V3E" , report its measured protein stability index.
**A:** 4.05

**Q:** Given the entry "Q15C" , report its measured protein stability index.
**A:** 3.87

**Q:** Given the entry "N23H" , report its measured protein stability index.
**A:** 4.35

**Q:** Given the entry "T12P" , report its measured protein stability index.
**A:** 4.52

**Q:** Given the entry "Q15G" , report its measured protein stability index.
**A:** 4.45

**Q:** Given the entry "A18T" , report its measured protein stability index.
**A:** 3.67

**Q:** Given the entry "D4L" , report its measured protein stability index.
**A:** 3.55

**Q:** Given the entry "N10P" , report its measured protein stability index.
**A:** 4.84

**Q:** Given the entry "N14L" , report its measured protein stability index.
**A:** 2.07

**Q:** Given the entry "E17M" , report its measured protein stability index.
**A:** 3.55

**Q:** Given the entry "P1R" , report its measured protein stability index.
**A:** 3.7

**Q:** Given the entry "Q15V" , report its measured protein stability index.
**A:** 3.82

**Q:** Given the entry "T22A" , report its measured protein stability index.
**A:** 3.94

**Q:** Given the entry "V3S" , report its measured protein stability index.
**A:** 3.64

**Q:** Given the entry "Q15T" , report its measured protein stability index.
**A:** 4.22

**Q:** Given the entry "N10M" , report its measured protein stability index.
**A:** 2.23

**Q:** Given the entry "E11S" , report its measured protein stability index.
**A:** 3.62

**Q:** Given the entry "E11F" , report its measured protein stability index.
**A:** 3.84

**Q:** Given the entry "N14D" , report its measured protein stability index.
**A:** 3.59

**Q:** Given the entry "L5D" , report its measured protein stability index.
**A:** 4.64

**Q:** Given the entry "Q7F" , report its measured protein stability index.
**A:** 3.79

**Q:** Given the entry "L19E" , report its measured protein stability index.
**A:** 5.19

**Q:** Given the entry "Y16C" , report its measured protein stability index.
**A:** 4.57

**Q:** Given the entry "N14A" , report its measured protein stability index.
**A:** 2.25

**Q:** Given the entry "E21H" , report its measured protein stability index.
**A:** 4.19

**Q:** Given the entry "R13I" , report its measured protein stability index.
**A:** 3.32

**Q:** Given the entry "L9Q" , report its measured protein stability index.
**A:** 4.24

**Q:** Given the entry "E17R" , report its measured protein stability index.
**A:** 3.96

**Q:** Given the entry "N23P" , report its measured protein stability index.
**A:** 4.54

**Q:** Given the entry "T12E" , report its measured protein stability index.
**A:** 4.5

**Q:** Given the entry "P1Y" , report its measured protein stability index.
**A:** 3.33

**Q:** Given the entry "Y16N" , report its measured protein stability index.
**A:** 5.25

**Q:** Given the entry "D4H" , report its measured protein stability index.
**A:** 4.22

**Q:** Given the entry "L19M" , report its measured protein stability index.
**A:** 3.89

**Q:** Given the entry "Q15N" , report its measured protein stability index.
**A:** 4.38
